PARAMETER MEASURED: melting point

Observe how each entry below is paired with its result.
O=C1NC(=O)C2(CCCCC2)N1c1cccnc1
264 to 266 °C
CC(NC(=S)Nc1ccc(N2CCCCC2)nc1)C(C)(C)C (stereo unspecified)
151 to 153 °C
CCCCCCCCCCCC=C1NN=CN1N
40 to 43 °C

melting point recorded for this molecule, Cc1cc(OC(F)F)nc(NC(=O)NS(=O)(=O)c2ccccc2OC(F)F)n1 , is 163 to 164 °C

melting point recorded for this molecule, COc1cc(C(C)C)c2c(c1)S(=O)(=O)N(COC(=O)c1cccc(O)c1)C2=O , is 71 to 73 °C

melting point recorded for this molecule, CCOC(=O)c1cnc2ccc(I)cn2c1=O , is 166 to 168 °C
